# assayed system: recombinant homotrimeric HA A/Hong Kong/156/97 H5N1 (Influenza A virus A/Hong Kong/156/97 (H5N1))
# protocol description: protein microarray, purified IgG, trimeric HA
# test conditions: remark: other sources report otherwise
parameter: Trimeric HA Binding: RLU (RLU)

• TCN-534 (5249_B02) (antibody, V domains shown) VH: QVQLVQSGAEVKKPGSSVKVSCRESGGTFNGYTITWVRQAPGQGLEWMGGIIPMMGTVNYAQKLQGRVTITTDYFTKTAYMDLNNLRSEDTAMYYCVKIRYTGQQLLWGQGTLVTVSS VL: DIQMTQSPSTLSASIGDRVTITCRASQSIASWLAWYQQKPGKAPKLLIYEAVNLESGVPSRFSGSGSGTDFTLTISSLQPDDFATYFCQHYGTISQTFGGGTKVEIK = 13200
• TCN-550 (5096_F06) (antibody, V domains shown) VH: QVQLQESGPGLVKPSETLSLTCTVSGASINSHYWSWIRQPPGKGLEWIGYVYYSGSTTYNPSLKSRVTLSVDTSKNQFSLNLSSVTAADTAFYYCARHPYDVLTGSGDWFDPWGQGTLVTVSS VL: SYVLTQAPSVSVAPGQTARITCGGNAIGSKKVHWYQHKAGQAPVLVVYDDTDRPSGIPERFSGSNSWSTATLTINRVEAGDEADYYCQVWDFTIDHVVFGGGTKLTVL = 304
• TCN-540 (5060_F05) (antibody, V domains shown) VH: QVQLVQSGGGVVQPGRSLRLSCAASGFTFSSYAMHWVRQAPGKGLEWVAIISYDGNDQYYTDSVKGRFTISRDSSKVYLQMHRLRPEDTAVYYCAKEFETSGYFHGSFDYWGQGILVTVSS VL: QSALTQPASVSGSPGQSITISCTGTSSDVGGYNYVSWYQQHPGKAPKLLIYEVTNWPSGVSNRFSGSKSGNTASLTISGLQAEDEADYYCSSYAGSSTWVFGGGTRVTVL = 465
• TCN-542 (5079_A16) (antibody, V domains shown) VH: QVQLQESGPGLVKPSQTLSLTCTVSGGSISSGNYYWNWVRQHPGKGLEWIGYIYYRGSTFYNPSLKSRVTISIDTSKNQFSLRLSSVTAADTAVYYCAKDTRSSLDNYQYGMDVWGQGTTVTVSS VL: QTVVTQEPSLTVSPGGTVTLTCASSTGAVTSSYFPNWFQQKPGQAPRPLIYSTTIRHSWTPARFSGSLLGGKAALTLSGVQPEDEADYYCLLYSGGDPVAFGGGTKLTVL = 894
• TCN-555 (5246_L16) (antibody, V domains shown) VH: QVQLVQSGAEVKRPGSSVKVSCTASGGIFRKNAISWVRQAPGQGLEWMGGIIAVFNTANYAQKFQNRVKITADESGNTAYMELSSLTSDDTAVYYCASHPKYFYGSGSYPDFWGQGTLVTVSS VL: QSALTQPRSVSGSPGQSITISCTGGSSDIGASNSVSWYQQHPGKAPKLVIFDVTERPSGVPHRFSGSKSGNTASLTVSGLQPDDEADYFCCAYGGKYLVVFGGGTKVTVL = 13100
